Catalogue of compounds with associated composite z-score
# System: Plasmodium falciparum Sir2 (PF13_0152, Sir2A)
# procedure details: pfSir2 binders on small-molecule microarrays, primary screen, biochemical, small-molecule microarray, 635 nm fluorescence (AID 1098);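 further: score merges spot fluorescence intensity with its signal-to-noise ratio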
# assay setup: small-molecule microarray binding, fluorescence 635 nm; higher = more signal

In the examples that follow, each entry is paired with its recorded composite z-score.
>>> experimental_value("O=C1OCC=C[C@H]2OC34C=CCN(Cn5nnc6ccccc65)C(=O)[C@H]3N(CCCO)C(=O)[C@@H]4[C@@H]12 (stereo partly drawn)")
-0.0241
>>> experimental_value("Cc1ccc(S[C@]2(C(=O)O)CC(=O)N(Cc3cc(C(F)(F)F)cc(C(F)(F)F)c3)[C@@H]2c2ccc(CO)cc2)cc1")
1.2
>>> experimental_value("C=CCC(OC(C)=O)[C@@H]1[C@@H](N(Cc2ccc(-c3ccccc3)cc2)C(=O)Cc2ccc(F)cc2)c2cc(OCCCO)ccc2N1C(=O)Cc1ccc(OC)cc1 (stereo partly drawn)")
-0.383

Name the reported composite z-score value associated with the compound `COc1ccc([Si](C)(C)[C@@H]2[C@@H](CC(=O)N3Cc4ccccc4C[C@H]3CO)O[C@]3(C(=O)N(Cc4cccc(N5C(=O)c6cccc7cccc5c67)c4)c4ccccc43)[C@H]2C)cc1` 1.25

Name the reported composite z-score value associated with the compound `COC(=O)c1nc2oc1CC[C@@H](CO)NC(=O)N(C)Cc1cnnn1C[C@H](Cc1ccccc1)NC2=O` 1.81

Name the reported composite z-score value associated with the compound `[N-]=[N+]=Nc1ccccc1C[C@]1(C(=O)N2CCOCC2)N=C(c2ccc(OCCCO)cc2)O[C@H]1c1ccccc1` 1.11

---

# target of assay: E3 ubiquitin-protein ligase XIAP (Homo sapiens)
# procedure details: XIAP binders, primary screen, biophysical, small-molecule microarray, fluorescence 635 nm (AID 1181);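 further: score merges 667 nm emission and signal to noise over triplicate slides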
# assay setup: small-molecule microarray binding, higher = more signal
Catalogue of compounds with associated composite z-score

>>> experimental_value("C=C(COC)/C(=C/C[C@H](OC(=O)c1ccncc1)c1ccccc1OCCO)c1cnc2ccccc2c1")
-0.0102
>>> experimental_value("Cc1cc(C)c(C(O)C2C=CC3C(=O)NC(=O)C3N2Nc2ccc(Cl)cc2Cl)c(C)c1 (stereo unspecified)")
0.0251
>>> experimental_value("COCCOC(=O)N1C(=O)[C@@]2(c3cc(C#Cc4ccc(OC)cc4)ccc31)[C@H](c1ccc(O)cc1)N1[C@H](c3ccccc3)[C@H](c3ccccc3)OC(=O)[C@H]1[C@@H]2C(=O)N1CCCCCCC1")
-0.158
>>> experimental_value("COCCCNC(=O)[C@]1(CCS(=O)(=O)c2ccccc2)N=C(c2ccc(OCCCO)cc2)O[C@@H]1c1ccccc1N=[N+]=[N-]")
-0.199
>>> experimental_value("CCOc1cc(C(O)C2C=CC3C(=O)N(C)C(=O)C3N2Nc2ccccc2)ccc1O (stereo unspecified)")
0.312

Kindly consider the entry below.
Tell me reported composite z-score for `C=CCOC(=O)[C@H]1[C@@H]2C(=O)O[C@@H](c3ccccc3)[C@@H](c3ccccc3)N2[C@@H](c2ccc(OCCOC(=O)[C@H]3C[C@H]4C(=O)N[C@@H](CC(C)C)C(=O)N4[C@H]3c3cccc(OCCO)c3)cc2)[C@]12C(=O)Nc1ccc(I)cc12` , tested with E3 ubiquitin-protein ligase XIAP (Homo sapiens). -0.0174
